Test system: IGROV1 ovarian
Experiment: NCI tumour cell line growth inhibition, 48 h
Listed below: TGI values for each entry.

[
  {
    "compound": "c1ccc(COc2ccc(Nc3ncnc4ccc(-c5ccco5)cc34)cc2)cc1",
    "targetUnderTest": "IGROV1 ovarian",
    "TGI": "> 23.1 µM"
  },
  {
    "compound": "COC(=O)C12C3C=CC(O3)C1C1C=CC2O1 (stereo unspecified)",
    "targetUnderTest": "IGROV1 ovarian",
    "TGI": "> 100 µM"
  },
  {
    "compound": "CCOC(=O)c1c(-c2ccccc2)[nH]c2ccccc2c1=O",
    "targetUnderTest": "IGROV1 ovarian",
    "TGI": "> 100 µM"
  },
  {
    "compound": "COC1(CCO)CC=CCC1(CCO)OC (stereo unspecified)",
    "targetUnderTest": "IGROV1 ovarian",
    "TGI": "> 100 µM"
  },
  {
    "compound": "CC(=O)N(CCc1ccccc1)C(C)(C#N)c1ccccc1 (stereo unspecified)",
    "targetUnderTest": "IGROV1 ovarian",
    "TGI": "> 100 µM"
  },
  {
    "compound": "CCOC(=O)C1=C(O)CSC1=Nc1ccc(N=C2SCC(O)=C2C(=O)OCC)cc1",
    "targetUnderTest": "IGROV1 ovarian",
    "TGI": "60.6 µM"
  }
]
